# Tested on: NCI-H661 (human lung large cell carcinoma)
# run_description: Cytotoxicity assay, NCI-H661 cells
# Assay type: cell-based
# recorded_conditions: 72 h, 3 days incubation, by interpolation
property_measured: IC50

- compound: "CCCn1c2ccccc2c2cc(C3=NCCc4c3[nH]c3ccccc43)ccc21 [Compound 4]"
  property_measured: "IC50"
  result: "5.02 µg/mL"
- compound: "CCn1c2ccccc2c2cc(C3=NCCc4c3[nH]c3ccccc43)ccc21 [Compound 2]"
  property_measured: "IC50"
  result: "0.84 µg/mL"
- compound: "CCCn1c2ccccc2c2cc(C3NCCc4c3[nH]c3ccccc43)ccc21 (stereo not drawn) [Compound 3]"
  property_measured: "IC50"
  result: "2.14 µg/mL"
- compound: "CCCCCCCCn1c2ccccc2c2cc(C3NCCc4c3[nH]c3ccccc43)ccc21 (stereo not drawn) [Compound 11]"
  property_measured: "IC50"
  result: "> 20 µg/mL"
- compound: "CCCCCn1c2ccccc2c2cc(C3NCCc4c3[nH]c3ccccc43)ccc21 (stereo not drawn) [Compound 7]"
  property_measured: "IC50"
  result: "0.22 µg/mL"
- compound: "CCCCCCCCCCn1c2ccccc2c2cc(C3NCCc4c3[nH]c3ccccc43)ccc21 (stereo not drawn) [Compound 13]"
  property_measured: "IC50"
  result: "13.9 µg/mL"
